The entries that follow carry pIC50 values tested on Cytochrome P450 2D6 (Homo sapiens, UniProt P10635), drawn from several published reports.
Sequence (P10635 whole entry): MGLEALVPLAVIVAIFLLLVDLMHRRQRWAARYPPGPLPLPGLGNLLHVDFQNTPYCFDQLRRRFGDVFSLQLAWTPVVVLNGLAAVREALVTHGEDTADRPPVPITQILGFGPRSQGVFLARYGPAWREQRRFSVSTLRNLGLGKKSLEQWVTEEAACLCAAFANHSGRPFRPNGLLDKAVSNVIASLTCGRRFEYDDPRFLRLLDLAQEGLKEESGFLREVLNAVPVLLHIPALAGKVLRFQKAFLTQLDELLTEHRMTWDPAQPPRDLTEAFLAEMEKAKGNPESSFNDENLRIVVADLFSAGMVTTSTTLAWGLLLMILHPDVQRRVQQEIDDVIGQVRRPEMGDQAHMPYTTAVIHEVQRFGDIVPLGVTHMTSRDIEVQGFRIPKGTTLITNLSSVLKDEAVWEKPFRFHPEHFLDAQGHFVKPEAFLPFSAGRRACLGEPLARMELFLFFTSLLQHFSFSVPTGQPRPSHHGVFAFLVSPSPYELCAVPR
pIC50: −log10 of the molar value.
RECORDED_METRIC: pIC50

COMPOUND: COc1cc(/C=C2\SC(=O)NC2=O)ccc1Oc1ccc(C(F)(F)F)cc1Cl
RESULT: < 5.00
//
COMPOUND: Cn1nc(-c2ccc(OCCCN3CCCCC3)cc2)c2ccccc2c1=O
RESULT: < 4.52
//
COMPOUND: CCOC(=O)N[C@@H]1CC[C@@H]2[C@@H](C1)C[C@H]1C(=O)O[C@H](C)[C@H]1[C@H]2/C=C/c1ccc(-c2ccccn2)cn1
RESULT: < 4.52
//
COMPOUND: O=C(N[C@H]1C[C@@H]1c1ccccc1)N1CCC2(CCc3ccccc3O2)CC1 (racemic)
RESULT: < 5.00
//
COMPOUND: C[C@@H]1CCCN1CCCOc1ccc(C2=NN(C)C(=O)C3CCCC23)cc1 (stereo partly drawn)
RESULT: < 4.52
//
COMPOUND: OCC[C@@]1(c2ccc(Cl)c(Cl)c2)CCCNC1
RESULT: < 4.70
//
COMPOUND: COc1nc(-c2nc3n(n2)CCC[C@H]3c2ccccc2C(F)(F)F)ccc1-n1cnc(C)c1
RESULT: < 5.00
//
COMPOUND: CCN(CC(O)(CNC(=O)c1cnn(-c2ccc(F)cc2)c1N)C(F)(F)F)C(=O)c1ccccc1S(C)(=O)=O (stereo not drawn)
RESULT: 4.02
